I'd appreciate it if you could supply IC50 values for the items below.
Molecular target: BRM (Homo sapiens)
Construct: made in house; host or cells: High Five insect cells
Sequence (P51531 whole entry): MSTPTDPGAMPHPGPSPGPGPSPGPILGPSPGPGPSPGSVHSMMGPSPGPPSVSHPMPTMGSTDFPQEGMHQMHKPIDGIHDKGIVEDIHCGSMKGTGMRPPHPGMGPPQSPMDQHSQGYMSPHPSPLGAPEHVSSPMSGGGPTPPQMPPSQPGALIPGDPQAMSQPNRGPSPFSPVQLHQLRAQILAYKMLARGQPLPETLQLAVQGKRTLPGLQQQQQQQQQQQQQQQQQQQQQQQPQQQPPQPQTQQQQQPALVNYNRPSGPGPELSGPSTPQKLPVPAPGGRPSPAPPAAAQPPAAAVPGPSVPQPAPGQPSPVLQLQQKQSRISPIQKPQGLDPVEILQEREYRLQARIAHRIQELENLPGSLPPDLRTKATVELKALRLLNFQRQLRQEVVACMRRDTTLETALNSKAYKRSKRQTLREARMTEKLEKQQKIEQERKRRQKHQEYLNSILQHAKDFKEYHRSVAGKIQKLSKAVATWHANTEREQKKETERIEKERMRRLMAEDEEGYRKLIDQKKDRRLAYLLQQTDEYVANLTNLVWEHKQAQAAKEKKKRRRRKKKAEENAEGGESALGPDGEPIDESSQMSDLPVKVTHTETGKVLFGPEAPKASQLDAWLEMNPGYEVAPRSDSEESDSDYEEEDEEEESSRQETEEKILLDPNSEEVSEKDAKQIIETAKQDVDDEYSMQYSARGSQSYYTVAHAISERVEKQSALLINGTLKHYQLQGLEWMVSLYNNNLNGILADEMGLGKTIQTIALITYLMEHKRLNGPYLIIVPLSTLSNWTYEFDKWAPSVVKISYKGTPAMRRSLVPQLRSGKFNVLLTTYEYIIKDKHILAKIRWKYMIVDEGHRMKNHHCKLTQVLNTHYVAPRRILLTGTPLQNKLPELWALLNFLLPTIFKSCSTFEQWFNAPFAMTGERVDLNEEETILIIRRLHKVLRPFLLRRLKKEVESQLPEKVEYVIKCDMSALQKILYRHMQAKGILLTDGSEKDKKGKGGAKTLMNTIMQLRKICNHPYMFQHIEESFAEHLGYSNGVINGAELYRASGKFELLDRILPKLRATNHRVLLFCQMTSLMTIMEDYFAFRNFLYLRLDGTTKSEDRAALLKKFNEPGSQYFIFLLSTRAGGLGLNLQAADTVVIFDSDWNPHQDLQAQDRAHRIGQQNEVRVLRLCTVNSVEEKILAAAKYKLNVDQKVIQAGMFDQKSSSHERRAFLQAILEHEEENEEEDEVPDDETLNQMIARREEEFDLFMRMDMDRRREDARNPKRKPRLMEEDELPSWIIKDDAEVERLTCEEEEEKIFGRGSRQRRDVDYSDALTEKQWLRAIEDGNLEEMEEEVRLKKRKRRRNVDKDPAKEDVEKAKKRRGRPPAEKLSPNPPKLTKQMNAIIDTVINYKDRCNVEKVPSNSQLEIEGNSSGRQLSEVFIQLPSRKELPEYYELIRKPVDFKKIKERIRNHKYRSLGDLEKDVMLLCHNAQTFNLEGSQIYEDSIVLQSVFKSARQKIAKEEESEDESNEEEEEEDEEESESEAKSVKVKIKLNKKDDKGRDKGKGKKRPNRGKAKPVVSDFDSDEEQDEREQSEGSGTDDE
Assay: ATPase catalytic activity of BRM, ADP-Glo in vitro biochemical assay
Conditions: ATPase catalytic activity, 30 nM BRM, 400 μM ATP, read-out: BRM IP50 (μM)*

query: Request - read-out IC50 | tested on BRM (Homo sapiens) | compound `CS(=O)(=O)n1ccc(C(=O)NCC(=O)Nc2nc(-c3cccc(C4CCC4)c3)cs2)c1`
result: > 0.01 µM

query: Request - read-out IC50 | tested on BRM (Homo sapiens) | compound `CS(=O)(=O)n1ccc(C(=O)NCC(=O)Nc2nc(-c3ccc4c(c3F)OCC4)cs2)c1`
result: > 0.01 µM

query: Request - read-out IC50 | tested on BRM (Homo sapiens) | compound `CC(C)(C)C[C@H](NC(=O)c1ccn(S(C)(=O)=O)c1)C(=O)Nc1nc(-c2cccc(-c3ccncc3)c2)cs1`
result: > 0.01 µM

query: Request - read-out IC50 | tested on BRM (Homo sapiens) | compound `CS(=O)(=O)n1ccc(C(=O)NCC(=O)Nc2nc(-c3ccc4c(c3)OCC4)cs2)c1`
result: > 0.01 µM

query: Request - read-out IC50 | tested on BRM (Homo sapiens) | compound `C[C@@H]1CN(c2cccc(-c3csc(NC(=O)CNC(=O)c4ccn(S(C)(=O)=O)c4)n3)c2)CC[C@@H]1O`
result: < 0.01 µM

query: Request - read-out IC50 | tested on BRM (Homo sapiens) | compound `CN(C)C(=O)Cn1ccc(-c2cccc(-c3csc(NC(=O)CNC(=O)c4ccn(S(C)(=O)=O)c4)n3)c2)n1`
result: < 0.01 µM

query: Request - read-out IC50 | tested on BRM (Homo sapiens) | compound `COC[C@H](NC(=O)c1ccn(S(C)(=O)=O)c1)C(=O)Nc1nc(-c2cccc(-c3ccnc(C)c3)c2)cs1`
result: < 0.01 µM
